# procedure_details: Plasma pharmacokinetics of BMS-962212 after IV infusion
# experimental_conditions: human, in vivo, iv, 9 mg h^−1
measurement_name: Tmax

{"compound": "CN1CCN(c2cccc3c2CCN(C(=O)/C=C/c2c(-n4cnnn4)ccc(Cl)c2F)[C@@H]3C(=O)Nc2ccc(C(=O)O)cc2)C(=O)C1 [BMS‐962212]", "meas_value": "36 h"}

----------
# procedure_details: Plasma pharmacokinetics of BMS-962212 after IV infusion
# experimental_conditions: human, in vivo, iv, 1 mg h^−1
measurement_name: AUC(0-inf) (ng·h/mL)

{"chemical_smiles": "CN1CCN(c2cccc3c2CCN(C(=O)/C=C/c2c(-n4cnnn4)ccc(Cl)c2F)[C@@H]3C(=O)Nc2ccc(C(=O)O)cc2)C(=O)C1", "measurement_unit": "ng·h/mL", "meas_value": 6380}

----------
# procedure_details: Plasma pharmacokinetics of BMS-962212 after IV infusion
# experimental_conditions: human, in vivo, iv, Vss, range across panels, 5-day IV infusion

{"chemical_smiles": "CN1CCN(c2cccc3c2CCN(C(=O)/C=C/c2c(-n4cnnn4)ccc(Cl)c2F)[C@@H]3C(=O)Nc2ccc(C(=O)O)cc2)C(=O)C1", "Vd": "164 to 218 L"}

----------
# procedure_details: Plasma pharmacokinetics of BMS-962212 after IV infusion
# experimental_conditions: human, in vivo, iv, 20 mg h^−1, Vz, part B 5-day IV infusion 20 mg h^−1; geometric mean (CV%)
measurement_name: Vd (L)

{"chemical_smiles": "CN1CCN(c2cccc3c2CCN(C(=O)/C=C/c2c(-n4cnnn4)ccc(Cl)c2F)[C@@H]3C(=O)Nc2ccc(C(=O)O)cc2)C(=O)C1", "meas_value": 219}

----------
# procedure_details: Plasma pharmacokinetics of BMS-962212 after IV infusion
# experimental_conditions: human, in vivo

{"compound": "CN1CCN(c2cccc3c2CCN(C(=O)/C=C/c2c(-n4cnnn4)ccc(Cl)c2F)[C@@H]3C(=O)Nc2ccc(C(=O)O)cc2)C(=O)C1 [BMS‐962212]", "Tmax": "1 to 2 h"}

----------
# procedure_details: Plasma pharmacokinetics of BMS-962212 after IV infusion
# experimental_conditions: human, in vivo, iv, 3 mg h^−1

{"chemical_smiles": "CN1CCN(c2cccc3c2CCN(C(=O)/C=C/c2c(-n4cnnn4)ccc(Cl)c2F)[C@@H]3C(=O)Nc2ccc(C(=O)O)cc2)C(=O)C1", "AUC(0-t), ng·h/mL": 21200}

----------
# procedure_details: Plasma pharmacokinetics of BMS-962212 after IV infusion
# experimental_conditions: human, in vivo, iv, 9 mg h^−1
measurement_name: AUC(0-t) (µg·h/mL)

{"chemical_smiles": "CN1CCN(c2cccc3c2CCN(C(=O)/C=C/c2c(-n4cnnn4)ccc(Cl)c2F)[C@@H]3C(=O)Nc2ccc(C(=O)O)cc2)C(=O)C1", "measurement_unit": "µg·h/mL", "meas_value": 54.8}

----------
# procedure_details: Plasma pharmacokinetics of BMS-962212 after IV infusion
# experimental_conditions: human, in vivo, iv, 25 mg h^−1
measurement_name: Tmax (h)

{"chemical_smiles": "CN1CCN(c2cccc3c2CCN(C(=O)/C=C/c2c(-n4cnnn4)ccc(Cl)c2F)[C@@H]3C(=O)Nc2ccc(C(=O)O)cc2)C(=O)C1", "measurement_name": "Tmax", "meas_value": 2}
